# method notes: In vitro anti-proliferative activity (MTT assay)
# Type: cell-based, human
# test conditions: African green monkey (Vero) / human (Caco-2); IC50 on normal (Vero) cells / IC50 on Caco-2; read-out: Selectivity index Caco-2
Here, each record is paired with measured selectivity ratio data.
observed property: selectivity ratio

INSERT INTO results (compound, data_value) VALUES
  ('COc1ccc2[nH]c(=O)c(/C=C3\SC(=O)N(CC(=O)Nc4ccccc4C)C3=O)cc2c1 [Compound 9]', 1.17),
  ('COc1ccc2[nH]c(=O)c(/C=C3\SC(=O)N(CC(=O)Nc4ccccc4)C3=O)cc2c1 [Compound 7]', 4.71),
  ('COc1ccc(NC(=O)CN2C(=O)S/C(=C\c3cc4cc(OC)ccc4[nH]c3=O)C2=O)cc1 [Compound 8]', 0.79),
  ('COc1cccc2c1C(=O)c1c(O)c3c(c(O)c1C2=O)C[C@@](O)(C(=O)CO)C[C@@H]3O[C@H]1C[C@H](N)[C@H](O)[C@H](C)O1 [Doxorubicin, reference compound]', 3.05);
